meta.source: patent US8835428B2

# target entity: hDGAT1 (Homo sapiens, UniProt O75907)
# Construct: host or cells: Sf9 insect cells (baculovirus); microsomal preparation
# Sequence (O75907 1-488): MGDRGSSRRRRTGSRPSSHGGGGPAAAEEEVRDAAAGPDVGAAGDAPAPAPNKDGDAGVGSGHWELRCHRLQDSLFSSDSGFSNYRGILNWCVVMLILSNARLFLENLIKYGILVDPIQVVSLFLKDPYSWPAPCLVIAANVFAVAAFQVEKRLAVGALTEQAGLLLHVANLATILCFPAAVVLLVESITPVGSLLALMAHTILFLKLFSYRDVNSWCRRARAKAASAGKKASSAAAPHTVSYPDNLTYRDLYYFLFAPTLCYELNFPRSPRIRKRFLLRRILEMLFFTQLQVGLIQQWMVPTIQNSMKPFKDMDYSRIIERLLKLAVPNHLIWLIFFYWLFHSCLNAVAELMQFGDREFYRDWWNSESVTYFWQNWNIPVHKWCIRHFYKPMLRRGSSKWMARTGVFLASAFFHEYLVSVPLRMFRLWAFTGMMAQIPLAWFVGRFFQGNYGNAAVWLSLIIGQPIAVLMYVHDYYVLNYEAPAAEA
# experiment: In-vitro DGAT1 assay (hDGAT1 microsomes from Sf9 cells, 14C oleoyl CoA, triglyceride formation)
# Format: biochemical
# details: At 1 μM
quantity measured: inhibition at 1 µM

[[record]]
compound = "COC(=O)[C@H](NC(=O)c1cc(-c2ccc(NS(=O)(=O)c3ccccc3F)cc2)no1)C(C)C"
target_entity = "hDGAT1 (Homo sapiens, UniProt O75907)"
result = "0 to 50%"

[[record]]
compound = "COC(=O)[C@H](C(C)C)N(C)C(=O)c1cc(-c2ccc(NC(=O)Nc3ccccc3F)cc2)no1"
target_entity = "hDGAT1 (Homo sapiens, UniProt O75907)"
result = "50 to 75%"

[[record]]
compound = "Cc1ccc(NC(=O)Nc2ccc(-c3cc(C(=O)NC(C(=O)O)C(C)C)on3)cc2)cc1Cl (stereo not drawn)"
target_entity = "hDGAT1 (Homo sapiens, UniProt O75907)"
result = "75 to 100%"

[[record]]
compound = "CC(C)C(NC(=O)c1cc(-c2ccc(OCc3cccc(C(F)(F)F)c3)cc2)no1)C(=O)O (stereo not drawn)"
target_entity = "hDGAT1 (Homo sapiens, UniProt O75907)"
result = "0 to 50%"

[[record]]
compound = "Cc1cc(C)cc(NC(=O)Nc2ccc(-c3cc(C(=O)N[C@H](C(=O)O)C(C)C)on3)cc2)c1"
target_entity = "hDGAT1 (Homo sapiens, UniProt O75907)"
result = "50 to 75%"

[[record]]
compound = "CC(C)[C@H](NC(=O)c1cc(-c2ccc(NC(=O)Nc3ccc(F)cc3)cc2F)no1)C(=O)O"
target_entity = "hDGAT1 (Homo sapiens, UniProt O75907)"
result = "50 to 75%"

[[record]]
compound = "CC(C)[C@H](NC(=O)c1cc(-c2ccc(NC(=O)Nc3ccc(Cl)cc3Oc3ccccc3)cc2)no1)C(=O)O"
target_entity = "hDGAT1 (Homo sapiens, UniProt O75907)"
result = "75 to 100%"

[[record]]
compound = "COC(=O)[C@H](NC(=O)c1cc(-c2ccc(NC(=O)Nc3ccc(C#N)cc3)cc2)no1)C(C)C"
target_entity = "hDGAT1 (Homo sapiens, UniProt O75907)"
result = "0 to 50%"

[[record]]
compound = "CC(C)[C@H](NC(=O)c1cc(-c2ccc(NC(=O)Nc3ccc(Cl)cc3C(F)(F)F)cc2)no1)C(=O)O"
target_entity = "hDGAT1 (Homo sapiens, UniProt O75907)"
result = "75 to 100%"

[[record]]
compound = "C=C(NC(=O)c1cc(-c2ccc(NC(=O)Nc3ccc(C)cc3)cc2)no1)C(=O)O"
target_entity = "hDGAT1 (Homo sapiens, UniProt O75907)"
result = "50 to 75%"


Quick one: inhibition at 1 µM for `CCS/C(=N\[C@@H](C(=O)OC)C(C)C)c1cc(-c2ccc(NC(=O)Nc3ccc(C)cc3)cc2)no1` ?
0 to 50%

Quick one: inhibition at 1 µM for `CC(C)[C@H](NC(=O)c1cc(-c2ccc(NC(=O)Nc3ccccc3Oc3ccccc3)cc2)no1)C(=O)O` ?
75 to 100%

Quick one: inhibition at 1 µM for `COC(=O)[C@@H]1CCCN1C(=O)c1cc(-c2ccc(NC(=O)Nc3ccccc3F)cc2)no1` ?
50 to 75%

Quick one: inhibition at 1 µM for `CC(C)[C@H](NC(=O)c1cc(-c2ccc(NC(=O)Nc3ccccc3OC(F)(F)F)cc2)no1)C(=O)O` ?
75 to 100%

Quick one: inhibition at 1 µM for CC(C)C(NC(=O)c1cc(-c2ccc(NC(=O)C(=O)Nc3cccc(C(F)(F)F)c3)cc2)no1)C(=O)O (stereo not drawn) ?
0 to 50%
